Below, each entry is listed with its recorded Kd.
target: HLA-A*02:03; assay: IEDB peptide-MHC binding, purified MHC/competitive/radioactivity; filed as Kd, often an IC50 or EC50 that approximates it; bounds were set here for any values at or beyond the usual limits of such assays; details: source organism: Dengue virus 3 Sri Lanka/1266/2000
Give the value; after it, write the unit.

residue_codes	result
CLMMILPAAL	39 nM

Query sequence follows.
Note to self: Kd recorded for LMMILPAALA was 98.8 nM

----------
biological target: HLA-B*83:01; assay: IEDB peptide-MHC binding, purified MHC/competitive/fluorescence; filed as Kd, often an IC50 or EC50 that approximates it; bounds were set here for any values at or beyond the usual limits of such assays; conditions: source organism: Giardia lamblia ATCC 50803
pKd: −log10 of the molar value.
metric: pKd

Note to self: pKd recorded for AEFPVGSTA was ≤ 5.30

----------
target: HLA-B*27:05; experiment: IEDB peptide-MHC binding, purified MHC/direct/fluorescence; filed as Kd, often an IC50 or EC50 that approximates it; bounds were set here for any values at or beyond the usual limits of such assays; details: source organism: Influenza A virus (A/Quail/Shanghai/8/96(H9N2))
metric: Kd

// returns Kd for LVGGREWSY with HLA-B*27:05; value = ≥ 20 µM

----------
biological target: HLA-B*27:05; test: IEDB peptide-MHC binding, purified MHC/direct/fluorescence; filed as Kd, often an IC50 or EC50 that approximates it; bounds were set here for any values at or beyond the usual limits of such assays; settings: source organism: Pseudomonas putida
metric: Kd

Note to self: Kd recorded for NWDWGVFFK was ≥ 20 µM

----------
target: HLA-A*11:01; assay: IEDB peptide-MHC binding, purified MHC/competitive/radioactivity; filed as Kd, often an IC50 or EC50 that approximates it; bounds were set here for any values at or beyond the usual limits of such assays; conditions: source organism: Vaccinia virus WR
pKd: −log10 of the molar value.
Classify on pKd using bucket A: < 5; bucket B: ≥ 5 and < 6; bucket C: ≥ 6

residue_codes	target_of_assay	answer_label
ISARALKAY	HLA-A*11:01	bucket C

Consider SIHLTKTDKK . To which pKd class does it belong?
bucket C

Consider NTPLHIVCSK . To which pKd class does it belong?
bucket C

Consider MIIKHIYEQY . To which pKd class does it belong?
bucket B

Consider VIGLTTHCTK . To which pKd class does it belong?
bucket C

Consider VLDRDGNFR . To which pKd class does it belong?
bucket A

Consider NFMVSVSDFR . To which pKd class does it belong?
bucket B

Consider IMVASDVCK . To which pKd class does it belong?
bucket C

Consider RIQRRDDVDR . To which pKd class does it belong?
bucket A

----------
target: HLA-B*83:01; assay: IEDB peptide-MHC binding, purified MHC/competitive/fluorescence; filed as Kd, often an IC50 or EC50 that approximates it; bounds were set here for any values at or beyond the usual limits of such assays; details: source organism: Yersinia pestis Nepal516
metric: pKd
API: returns pKd as number; meaning -log10 of concentration in mol/L.

Note to self: pKd recorded for MPFAWQFGF was 7.53

----------
biological target: HLA-A*30:01; assay: IEDB peptide-MHC binding, purified MHC/competitive/radioactivity; filed as Kd, often an IC50 or EC50 that approximates it; bounds were set here for any values at or beyond the usual limits of such assays; conditions: source organism: Mammarenavirus brazilense
pKd: −log10 of the molar value.
metric: pKd

Note to self: pKd recorded for ELLNTPYCNY was ≤ 4.15
